IL-8, cross-linked by F(ab')2 fragment [abs. corr.] values by entry
assay_system: T1, CD27 expressed on the cell surface (HT1080_CD27 cells) (human, UniProt P26842 20-260); also: test concentration or dose not given here
T1 sequence (looked up): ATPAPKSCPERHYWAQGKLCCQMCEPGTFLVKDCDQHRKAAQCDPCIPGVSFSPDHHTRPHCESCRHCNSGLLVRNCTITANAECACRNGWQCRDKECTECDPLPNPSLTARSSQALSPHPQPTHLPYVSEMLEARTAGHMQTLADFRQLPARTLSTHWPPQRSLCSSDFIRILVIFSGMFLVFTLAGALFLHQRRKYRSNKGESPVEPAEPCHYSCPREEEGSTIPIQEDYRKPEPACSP
assay_name: cell-based or functional assay
Report the value in abs. corr. with no unit label.

(Q) Fill in: IL-8, cross-linked by F(ab')2 fragment [abs. corr.] of P018.S.09.A.H04 (antibody, V domains shown, V regions on human Ig constant parts; also called AB27_161) VH: QSVEESGGRLVTPGTPLTLTCTVSGFSLSSYVMSWVRQAPGKGLEWIGYSDYGGTAYYANWAKGRFTISKTSTTVELKITSPTIEDTATYFCARGGYDGYLLVTGLWGPGTLVTVSS VL: DIVMTQTPASVSEPVGGTVTIKCQASQSISSYLAWYQQKPGQPPKLLIYSASTLASGVSSRFKGSGSGTEYTLTISDLESADAATYYCQTYYGGGPFGNGFGGGTEVVVK is ___
(A) 1.4

(Q) Fill in: IL-8, cross-linked by F(ab')2 fragment [abs. corr.] of P018.S.02.A.B03 (antibody, V domains shown, V regions on human Ig constant parts; also called AB27_30) VH: QSLEESGGGLVKPGGTLTLTCTASGFSLSSTYMSWVRQAPGKGLEWIGDIYTDGSTYYASWVNGRFTISKTSTTVDLKMTSLTTEDTATYFCARGAAAAYDLWGQGTLVTVSS VL: AYDMTQTPASVSAAVGGTVTIKCQASQNIYTNLAWYQQKPGQPPKLLIYGVSNLESGVPSRFKGSGSGTQFTLTISGVQSDDAATYYCQQGYSSTNVENAFGGGTEVVVK is ___
(A) 1.16

API: the following record is the query input.
(Q) Fill in: IL-8, cross-linked by F(ab')2 fragment [abs. corr.] of P018.S.02.A.F05 (antibody, V domains shown, V regions on human Ig constant parts; also called AB27_35) VH: QEQLVESGGDLVKPEGSLTLTCTASGFSFSSSYYMSWVRQAPGKGLEWIACIDTVDNYTYYASWAKGRFTISKTSSTTVSLQMTSLTAADTATYFCARERIAYNTDYFNLWGPGTLVTVSS VL: AQVLTQTPSPVSAAVGGTVTISCQSSQSLYNYNNLAWYQQKPGQPPKLLIYSASNLASGVPSRFGGSGSGTQFTLTISDLQSDDAATYYCQGYYSGAVYTFGGGTEVVVK is ___
(A) 1.17
